# Test system: bradykinin response of isolated guinea pig ileum
# procedure_summary: Anti-bradykinin activity on isolated guinea pig ileum
# details: isolated guinea pig ileum; pD2 of bradykinin is 7.4; higher numbers indicate higher potency
readout: GPI: pA2 for bradykinin antagonist activity on isolated guinea pig ileum

>>> recorded_value("CC1(C)CC(NC(=O)C(CCC(=O)O)NC(=O)C(Cc2ccc3ccccc3c2)NC(=NC2CCCCC2)NC2CCCCC2)CC(C)(C)N1 (stereo not drawn) [M350]")
5.0
>>> recorded_value("CC1(C)CC(NC(=O)C(Cc2cccc3ccccc23)NC(=O)C=Cc2ccc(NC(=O)CCCCCCCCCCC(=O)Nc3ccc(C=CC(=O)NC(Cc4cccc5ccccc45)C(=O)NC4CC(C)(C)NC(C)(C)C4)cc3)cc2)CC(C)(C)N1 (stereo not drawn) [M616]")
5.4
>>> recorded_value("CC1(C)CC(NC(=O)[C@@H](NC(=NC2CCCCC2)NC2CCCCC2)C2Cc3ccccc3C2)CC(C)(C)N1Cc1ccccc1 [M258]")
5.0
>>> recorded_value("CC1(C)CC(NC(=O)[C@H](Cc2ccc3ccccc3c2)NC(=N)CCCCCCCCCCCCC(=N)N[C@@H](Cc2ccc3ccccc3c2)C(=O)NC2CC(C)(C)NC(C)(C)C2)CC(C)(C)N1 [M254-1]")
5.1
>>> recorded_value("CC1(C)CC(NC(=O)C(Cc2ccc3ccccc3c2)NC(=O)C=Cc2ccc(N)cc2)CC(C)(C)N1 (stereo not drawn) [M308]")
5.0

----------
# Tested on: bradykinin response of isolated guinea pig ileum
# procedure_summary: Anti-bradykinin activity on isolated guinea pig ileum
# details: isolated guinea pig ileum; pD2 of bradykinin is 7.4; higher numbers indicate higher potency
readout: GPI: pA2 for bradykinin antagonist activity on isolated guinea pig ileum

>>> recorded_value("CN1CCN(NC(=O)C(Cc2ccc3ccccc3c2)NC(=O)C=Cc2ccc(N(C)C)cc2)CC1 (centres unmarked) [M472]")
5.3
>>> recorded_value("CC1(C)CC(NC(=O)[C@H](Cc2c[nH]c3ccccc23)NC(=NC2CCCCC2)NC2CCCCC2)CC(C)(C)N1 [M264]")
4.7
>>> recorded_value("O=C(NC1CN2CCC1CC2)C(NC(=NC1CCCCC1)NC1CCCCC1)C1Cc2ccccc2C1 (centres unmarked) [M12]")
5.0
>>> recorded_value("CN(C)CCCNC(=O)C(Cc1ccc2ccccc2c1)NC(=O)C=Cc1c(F)c(F)c(F)c(F)c1F (centres unmarked) [M526]")
5.4
>>> recorded_value("CC1=C(CC(=O)NC2CC(C)(C)NC(C)(C)C2)c2cc(F)ccc2C1=Cc1ccc([S+](C)[O-])cc1 (centres unmarked) [M654]")
4.5
>>> recorded_value("CC1(C)CC(NC(=O)C(CC(=O)O)NC(=O)C(Cc2ccc3ccccc3c2)NC(=NC2CCCCC2)NC2CCCCC2)CC(C)(C)N1 (centres unmarked) [M342]")
5.4
>>> recorded_value("O=C(C=Cc1c(F)c(F)c(F)c(F)c1F)NCC(=O)Nc1cccc(C(=O)N[C@@H](Cc2ccc3ccccc3c2)C(=O)O)c1 [M202]")
5.1
>>> recorded_value("CC1(C)CC(NC(=O)Cc2ccc(NC(=NC3CCCCC3)NC3CCCCC3)cc2)CC(C)(C)N1 [M266]")
4.8

----------
Below is a list of entries, each paired with its recorded GPI: pA2 for bradykinin antagonist activity on isolated guinea pig ileum value.
# Test system: bradykinin response of isolated guinea pig ileum
# procedure_summary: Anti-bradykinin activity on isolated guinea pig ileum
# details: isolated guinea pig ileum; pD2 of bradykinin is 7.4; higher numbers indicate higher potency
# Procedure: In general, Anti-bradykinin activity was determined by the classical guinea pig ileum assay and on Chinese hamster ovary (CHO) cells expressing cloned human bradykinin B2 receptors. Anti-tumor activity was determined on cultured human cancer cell lines using the standard tetrazolium (MTT) assay. […]
readout: GPI: pA2 for bradykinin antagonist activity on isolated guinea pig ileum

>>> recorded_value("CN1CCN(NC(=O)C(Cc2ccc3ccccc3c2)NC(=O)C=Cc2c(F)c(F)c(F)c(F)c2F)CC1 (stereo not drawn) [M470]")
5.2
>>> recorded_value("CN(C(=O)C(Cc1ccc(OCc2c(Cl)cccc2Cl)cc1)NC(=O)CCc1ccccc1)C1CC(C)(C)N(C)C(C)(C)C1 (stereo not drawn) [M652]")
5.7

Hello, the source for this data is patent US7071168B2, in case you need it.
